Biological target: SNX27, Q96L92
Assay: holdup assay
Parameters: key: below the threshold = too weak to quantify, mostly under pKd 3.1 to 4
Conditions: plain residues with an end cap or a label only (N-terminal biotin on a linker: ado-ado)

{"binder": "YNNCLEILRV [DCAF7, P61962]", "pKd": "below the threshold"}
{"binder": "QKNRKAQEDL [CES3, Q6UWW8]", "pKd": "below the threshold"}
{"binder": "TLPRKRMSSI [GPRC6A, Q5T6X5]", "pKd": "below the threshold"}
